Data origin, for the record: the RepoRT retention time repository

- Assay Name: RP, Thermo Scientific Hypersil GOLD, 1.9 µm, 40 °C, 0.4 mL/min; A: water + 0.1% formic acid, pH 3; B: acetonitrile + 0.1% formic acid, pH 3; gradient (min/%B) 0/0 1/0 11/100 13/100 14/0 16/0
- Test Parameters: stereoisomer not certain
# LC retention time listing for each entry below
Property Measured: LC retention time (min)

{"Compound": "O=CC(O)CO (stereo not drawn)", "Property Measured": "LC retention time", "Unit Annotation": "min", "Value Measured": 0.64}
{"Compound": "CC(C)=CCCC(C)C1CCC2C3CC=C4CC(O)CCC4(C)C3CCC12C (stereo not drawn)", "Property Measured": "LC retention time", "Unit Annotation": "min", "Value Measured": 13.9}
{"Compound": "NCCc1ccc(O)c(O)c1", "Property Measured": "LC retention time", "Unit Annotation": "min", "Value Measured": 0.83}
{"Compound": "O=C(O)C(=O)CCc1ccccc1", "Property Measured": "LC retention time", "Unit Annotation": "min", "Value Measured": 6.35}
{"Compound": "C/C(=C\\C(=O)O)CC(=O)O [(E)-3-Methylglutaconic acid]", "Property Measured": "LC retention time", "Unit Annotation": "min", "Value Measured": 4.1}
{"Compound": "Nc1ccccc1C(=O)O [ANTHRANILATE]", "Property Measured": "LC retention time", "Unit Annotation": "min", "Value Measured": 5.29}
{"Compound": "CCCCCCCCCCCCCCCC(=O)OC(CC(=O)[O-])C[N+](C)(C)C (stereo not drawn)", "Property Measured": "LC retention time", "Unit Annotation": "min", "Value Measured": 9.69}
{"Compound": "[NH3+]CC(=O)N1CCCC1C(=O)[O-] (stereo not drawn)", "Property Measured": "LC retention time", "Unit Annotation": "min", "Value Measured": 0.82}

* * *

# LC retention time listing for each entry below
- Assay Name: RP, Thermo Scientific Hypersil GOLD, 1.9 µm, 40 °C, 0.4 mL/min; A: water + 0.1% formic acid, pH 3; B: acetonitrile + 0.1% formic acid, pH 3; gradient (min/%B) 0/0 1/0 11/100 13/100 14/0 16/0
- Test Parameters: stereoisomer not certain

{"Compound": "CC(=O)NCCCCN", "LC retention time (min)": 0.71}
{"Compound": "COc1cc(CCN)ccc1O", "LC retention time (min)": 2.47}
{"Compound": "CC(CCC(=O)O)C(=O)O (centres undefined) [2-METHYLGLUTARATE]", "LC retention time (min)": 4.4}
{"Compound": "NCC(=O)NCC(=O)O", "LC retention time (min)": 0.62}
{"Compound": "COC(=O)Cc1c[nH]c2ccccc12 [INDOLE-3-METHYL ACETATE]", "LC retention time (min)": 7.44}
{"Compound": "O=C1OC(CO)C(O)C(O)C1O (centres undefined)", "LC retention time (min)": 0.64}
{"Compound": "NC(=O)NCCCC(N)C(=O)O (centres undefined)", "LC retention time (min)": 0.65}
{"Compound": "CCC(C(=O)O)C(=O)O [ETHYLMALONATE]", "LC retention time (min)": 3.77}
{"Compound": "CC(=O)OCC(=O)C1CCC2C3CCC4=CC(=O)CCC4(C)C3CCC12C (centres undefined) [DEOXYCORTICOSTERONE ACETATE]", "LC retention time (min)": 9.25}
{"Compound": "C=CC1=C(C)C(=Cc2[nH]c(Cc3[nH]c(C=C4NC(=O)C(C)=C4C=C)c(C)c3CCC(=O)O)c(CCC(=O)O)c2C)NC1=O", "LC retention time (min)": 12.6}
{"Compound": "CC(=O)C1(O)CCC2C3CC=C4CC(O)CCC4(C)C3CCC21C (centres undefined) [17a-Hydroxypregnenolone]", "LC retention time (min)": 0.67}
{"Compound": "O=C(O)c1ccc2ccccc2c1[O-] [1-HYDROXY-2-NAPHTHOATE]", "LC retention time (min)": 8.24}
{"Compound": "CNC(CCC(=O)O)C(=O)O (centres undefined) [N-METHYLGLUTAMATE]", "LC retention time (min)": 0.66}
{"Compound": "COC(=O)c1ccc(O)c(OC)c1 [METHYL VANILLATE]", "LC retention time (min)": 6.4}
{"Compound": "CSCCC(NC(C)=O)C(=O)O (centres undefined)", "LC retention time (min)": 4.61}
{"Compound": "O=C(O)CCCCC1SCC2NC(=O)NC21 (centres undefined)", "LC retention time (min)": 5.15}
{"Compound": "CSCC[C@H](NC=O)C(=O)O", "LC retention time (min)": 4.28}
{"Compound": "CC(=O)NC(CCCC[NH3+])C(=O)[O-] (centres undefined)", "LC retention time (min)": 0.72}
{"Compound": "O=C(O)CCCCCCC(=O)O [SUBERATE]", "LC retention time (min)": 5.58}

* * *

- Assay Name: RP, Thermo Scientific Hypersil GOLD, 1.9 µm, 40 °C, 0.4 mL/min; A: water + 0.1% formic acid, pH 3; B: acetonitrile + 0.1% formic acid, pH 3; gradient (min/%B) 0/0 1/0 11/100 13/100 14/0 16/0
- Test Parameters: stereoisomer not certain
I'd appreciate it if you could label each record using LC retention time and these ranges: 1 (below 0.8 min), 2 (0.8 min to below 4 min), 3 (4 min or more)

{"Molecule": "CCCCCCCCCCCCCC(=O)OCC(O)CO (stereo unspecified) [GLYCEROL-MYRISTATE]", "Qualitative Label": 3}
{"Molecule": "O=C([O-])c1c[nH]c(=O)[nH]c1=O [URACIL 5-CARBOXYLATE]", "Qualitative Label": 2}
{"Molecule": "Cn1c(=O)[nH]c2[nH]c(=O)n(C)c2c1=O", "Qualitative Label": 3}
{"Molecule": "Nc1ncnc2c1ncn2C1CC(O)C(COP(=O)(O)O)O1 (stereo unspecified) [DEOXYADENOSINE MONOPHOSPHATE]", "Qualitative Label": 2}
{"Molecule": "Cn1c[n+](C2OC(CO)C(O)C2O)c2nc(N)[nH]c(=O)c21 (stereo unspecified)", "Qualitative Label": 2}
{"Molecule": "NC(=O)CC[C@H](N)C(=O)O", "Qualitative Label": 1}
{"Molecule": "CCCCCCCCCCCCCCCCC(=O)O [HEPTADECANOATE]", "Qualitative Label": 3}
{"Molecule": "CC(C)(CCC(=O)O)C(=O)O", "Qualitative Label": 3}
{"Molecule": "CC(CC(=O)O)C(=O)O (stereo unspecified)", "Qualitative Label": 2}
{"Molecule": "C[S+](CCC(N)C(=O)[O-])CC1OC(n2cnc3c(N)ncnc32)C(O)C1O (stereo unspecified)", "Qualitative Label": 1}
{"Molecule": "CC(=O)OCC(=O)C1(O)CCC2C3CCC4=CC(=O)CCC4(C)C3C(O)CC21C (stereo unspecified) [CORTISOL 21-ACETATE]", "Qualitative Label": 3}
{"Molecule": "CCCCCCCC(=O)OC(CC(=O)[O-])C[N+](C)(C)C (stereo unspecified)", "Qualitative Label": 3}
{"Molecule": "O=C(O)c1ccc(O)c(O)c1 [3-4-DIHYDROXYBENZOATE]", "Qualitative Label": 2}
{"Molecule": "CC(CN)C(=O)O (stereo unspecified) [AMINOISOBUTANOATE]", "Qualitative Label": 1}
{"Molecule": "NCCP(=O)(O)O [(2-AMINOETHYL)PHOSPHONATE]", "Qualitative Label": 1}
{"Molecule": "NC(CSCC(=O)O)C(=O)O (stereo unspecified)", "Qualitative Label": 1}
{"Molecule": "NCCc1cc(O)c(O)cc1O [6-HYDROXYDOPAMINE]", "Qualitative Label": 1}
{"Molecule": "O=C([O-])C=CC(=O)[O-] [MALEATE]", "Qualitative Label": 2}
{"Molecule": "O=C(O)c1ccnc2ccccc12", "Qualitative Label": 2}
{"Molecule": "O=C(O)CC(Cc1ccccc1)C(=O)O (racemic)", "Qualitative Label": 3}

* * *

- Assay Name: RP, Thermo Scientific Hypersil GOLD, 1.9 µm, 40 °C, 0.4 mL/min; A: water + 0.1% formic acid, pH 3; B: acetonitrile + 0.1% formic acid, pH 3; gradient (min/%B) 0/0 1/0 11/100 13/100 14/0 16/0
- Test Parameters: stereoisomer not certain
Labelling field: enter true (1) if recorded LC retention time is less than 0.8 min. Enter false (0) if it equals or exceeds that cut-off.

{"Molecule": "Cn1c(=O)c2[nH]cnc2n(C)c1=O [THEOPHYLLINE]", "Qualitative Label": "false (0)"}
{"Molecule": "NC(N)=NC(CC(=O)O)C(=O)O (configuration not stated) [GUANIDINOSUCCINATE]", "Qualitative Label": "true (1)"}
{"Molecule": "CC(=O)C1(O)CCC2C3CCC4=CC(=O)CCC4(C)C3C(O)CC21C (configuration not stated) [21-Deoxycortisol]", "Qualitative Label": "false (0)"}
{"Molecule": "NC(=O)c1ccc[n+](C2OC(COP(=O)([O-])O)C(O)C2O)c1 (configuration not stated) [NICOTINAMIDE MONONUCLEOTIDE]", "Qualitative Label": "true (1)"}
{"Molecule": "NC(=O)CCCCC1CCSS1 (configuration not stated) [LIPOAMIDE]", "Qualitative Label": "false (0)"}
{"Molecule": "NC(C(=O)O)C(O)C(O)C(O)CO (configuration not stated) [GLUCOSAMINATE]", "Qualitative Label": "true (1)"}
